target: Protein kinase C gamma type (Homo sapiens) (UniProt P05129); details: at 1 µM;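 also: each value is an averaged percent inhibition of the enzyme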
Endpoint: inhibition (%)
Numbers only, in %.

Parameter requested: inhibition. Apply to each item below.
1. COc1cc2ncn(-c3cc(OCc4ccccc4C(F)(F)F)c(C(C)=O)s3)c2cc1OC
2. O=C(Nc1n[nH]c2nc(-c3ccco3)ccc12)C1CC1
3. Fc1ccc(-c2c(-c3ccncc3)nc3n2CCS3)cc1

1: 0.33; 2: 3.88; 3: 4.08

Parameter requested: inhibition. Apply to each item below.
1. C#Cc1cccc(Nc2ncnc3ccc(OCCCCNCCS(C)(=O)=O)cc23)c1
2. CS(=O)(=O)CCNCc1ccc(-c2ccc3ncnc(Nc4ccc(OCc5ccccc5)c(Br)c4)c3c2)o1
3. Nc1nccc(-c2c(-c3ccc(F)cc3)ncn2C2CCC(O)CC2)n1 (stereo unspecified)
4. COc1cc(Nc2ncc(-c3ccccc3)o2)cc(OC)c1OC
5. CCC(=O)Nc1ccc(C)c(-c2ccc(C(=O)NCC3CC3)cc2)c1
6. O=C(Nc1n[nH]c2nc(-c3ccc(O)cc3)c(Br)cc12)C1CC1

[7.74, -0.13, 2.37, 1.46, 2.13, 48.1]

Parameter requested: inhibition. Apply to each item below.
1. COc1cc2ncn(-c3cc(OCCc4ccccc4)c(C(N)=O)s3)c2cc1OC
2. COc1cccc(-n2cnc3c(N/N=C/c4ccncc4)ncnc32)c1
3. NS(=O)(=O)c1ccc(N/N=C2\C(=O)Nc3ccc(-c4cnco4)cc32)cc1
4. CN(C)c1ccc2c(c1)/C(=C/Nc1ccc(S(N)(=O)=O)cc1)C(=O)N2
5. c1ccc(-c2n[nH]cc2-c2ccnc(-c3ccc(OCCN4CCOCC4)cc3)c2)nc1
6. O=C(Nc1n[nH]c2cc(-c3cc(F)ccc3F)ccc12)C1CC1
7. Cc1ccc(C(=O)NC2CCC2)cc1-c1ccc(C(=O)NCC2CC2)cc1

1: 1.47; 2: 3.14; 3: 4.1; 4: 2.72; 5: 4; 6: 1.94; 7: 0.94

###

molecular target: Calcium/calmodulin-dependent protein kinase type II subunit delta (Homo sapiens) (UniProt Q13557); conditions: at 0.1 µM;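 also: percent inhibition values are means, taken from the GSK PKIS kinase profiling set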
Sequence (Q13557 whole entry): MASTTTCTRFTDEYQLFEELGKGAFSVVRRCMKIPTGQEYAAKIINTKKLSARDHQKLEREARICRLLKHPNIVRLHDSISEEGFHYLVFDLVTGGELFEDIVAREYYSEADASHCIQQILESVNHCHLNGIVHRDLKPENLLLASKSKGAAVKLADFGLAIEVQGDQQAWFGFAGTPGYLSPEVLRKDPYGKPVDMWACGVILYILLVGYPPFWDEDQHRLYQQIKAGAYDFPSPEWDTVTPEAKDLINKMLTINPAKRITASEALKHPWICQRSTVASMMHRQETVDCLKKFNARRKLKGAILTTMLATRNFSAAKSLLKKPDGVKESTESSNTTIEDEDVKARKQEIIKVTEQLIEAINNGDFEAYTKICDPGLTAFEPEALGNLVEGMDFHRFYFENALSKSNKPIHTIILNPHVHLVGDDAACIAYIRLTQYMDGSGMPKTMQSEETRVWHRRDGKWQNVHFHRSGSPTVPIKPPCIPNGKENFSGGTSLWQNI
Endpoint: inhibition

CN(C)CCOc1ccc(-c2cc(-c3ccc4c(c3)CCC4=NO)c(-c3ccncc3)o2)cc1; -0.38%

Parameter requested: inhibition. Apply to each item below.
1. C/C(Nc1ccc(S(N)(=O)=O)cc1)=C1/C(=O)Nc2ccccc21
2. Cc1ccc(C(=O)NC(C)C)cc1-c1ccc(C(=O)NCC2CC2)cc1
3. Cc1ccc(NC(=O)c2ccoc2)cc1-c1ccc(C(=O)NCC2CC2)cc1

-2.27%
-3.04%
1.18%

Give the measured inhibition of `Fc1ccc(-c2ncn(C3CCNCC3)c2-c2ccnc(Oc3ccc(F)c(F)c3)n2)cc1` . 1.91%

###

target: Serine/threonine-protein kinase D3 (Homo sapiens) (UniProt O94806); conditions: at 0.1 µM;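 also: each value is the mean of inhibition readings, from a kinase profiling panel run on the GSK PKIS inhibitor collection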
Sequence (O94806 whole entry): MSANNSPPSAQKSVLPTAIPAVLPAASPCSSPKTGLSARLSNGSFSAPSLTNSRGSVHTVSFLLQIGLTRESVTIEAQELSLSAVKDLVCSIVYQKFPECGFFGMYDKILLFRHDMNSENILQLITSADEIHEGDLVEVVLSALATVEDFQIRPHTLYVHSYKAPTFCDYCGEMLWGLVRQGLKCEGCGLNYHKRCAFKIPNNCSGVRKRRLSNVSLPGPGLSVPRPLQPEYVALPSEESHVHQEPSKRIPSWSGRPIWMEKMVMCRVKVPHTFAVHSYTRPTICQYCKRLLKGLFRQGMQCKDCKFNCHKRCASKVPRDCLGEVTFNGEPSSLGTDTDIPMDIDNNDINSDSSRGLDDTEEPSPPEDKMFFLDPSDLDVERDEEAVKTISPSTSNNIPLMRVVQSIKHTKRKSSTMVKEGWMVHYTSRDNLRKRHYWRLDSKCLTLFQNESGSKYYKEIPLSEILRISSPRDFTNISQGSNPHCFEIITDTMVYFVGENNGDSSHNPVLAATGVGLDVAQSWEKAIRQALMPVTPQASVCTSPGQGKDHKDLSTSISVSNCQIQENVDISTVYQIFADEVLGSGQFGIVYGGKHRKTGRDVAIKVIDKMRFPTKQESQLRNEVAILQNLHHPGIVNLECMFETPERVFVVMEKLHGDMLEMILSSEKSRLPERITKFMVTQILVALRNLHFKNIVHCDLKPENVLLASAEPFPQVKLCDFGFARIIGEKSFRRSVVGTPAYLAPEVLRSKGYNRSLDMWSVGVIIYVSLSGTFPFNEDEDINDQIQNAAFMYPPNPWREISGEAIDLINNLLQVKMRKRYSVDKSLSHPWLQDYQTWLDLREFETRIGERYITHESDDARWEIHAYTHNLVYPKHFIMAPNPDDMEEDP
Endpoint: inhibition (%)
Answers are plain numbers, in %.

Parameter requested: inhibition. Apply to each item below.
1. CN(C)CCCNc1nccc(-c2c(-c3ccc(F)cc3)nn3cc(C(F)(F)F)ccc23)n1
2. COc1cc(Nc2ncc3c(C)nc(-c4cccc(C(F)(F)F)c4)n3n2)cc(OC)c1OC

-1.49
2.48

Parameter requested: inhibition. Apply to each item below.
1. CN(C)CCOc1ccc(-c2cc(-c3ccc4c(c3)CCC4=NO)c(-c3ccncc3)o2)cc1
2. COc1cc2ncn(-c3cc(OCCc4ccccc4)c(C(N)=O)s3)c2cc1OC

[-0.84, 3.76]

Parameter requested: inhibition. Apply to each item below.
1. COc1cc(Nc2ncc3c(C)nc(-c4cccc(Oc5ccccc5)c4)n3n2)cc(OC)c1OC
2. NC(=O)Cc1ccccc1Oc1nccc(-c2c(-c3ccc(F)cc3)ncn2C2CCNCC2)n1
3. COc1cc2ncn(-c3cc(OCc4cccs4)c(C(N)=O)s3)c2cc1OC
4. NC(=O)c1cc(-c2ccc(F)cc2)cc(-c2ccncc2)c1N
5. C[C@@H](Oc1cc(-n2cnc3ccc(OCC4CCN(C)CC4)cc32)sc1C(N)=O)c1ccccc1Cl
6. O=C1Nc2ccc(I)cc2C1=Cc1cc(Br)c(O)c(Br)c1

1: 1.74; 2: 3.95; 3: -1.14; 4: 3.88; 5: 5.81; 6: 3.73
